Attribution: patent US20090048164A1

- TEST_SYSTEM: Recombinant human Bcl-xL with a 25 amino acid truncation of its C-terminus (human) (UniProt Q07817)
- Sequence (Q07817 1-208): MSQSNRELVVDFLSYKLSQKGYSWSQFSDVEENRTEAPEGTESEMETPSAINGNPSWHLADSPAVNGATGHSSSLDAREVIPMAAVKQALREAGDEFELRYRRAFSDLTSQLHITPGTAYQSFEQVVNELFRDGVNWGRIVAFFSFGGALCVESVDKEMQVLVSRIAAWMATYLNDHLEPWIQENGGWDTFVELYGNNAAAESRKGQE
- RUN_DESCRIPTION: competition phage ELISA
PARAMETER_MEASURED: Fold/wt (fold)
Numbers only; they are read as fold.

Recorded Fold/wt of QEDIIRNIARHLAQVGDSMDASIPPG [Bid BH3 R21A, phage-displayed] , please.
3

Could you share which Fold/wt value was measured for NLWAAQRYGRELRRMSDEAVDSFKKG [Bad BH3 F19A, phage-displayed] ?
12

What does the data say about its Fold/wt? Entry: QEDIIRAIARHLAQVGDSMDRSIPPG [Bid BH3 N7A, phage-displayed]
1

I would be grateful if you could share the reported Fold/wt for PASTMGQVGRQLAIIGDDINRRYDSE [Bak BH3 S2A, phage-displayed] .
1

So what's the measured Fold/wt for this one? AEDIIRNIARHLAQVGDSMDRSIPPG [Bid BH3 Q1A, phage-displayed]
2

Suppose we examine the binder PSSTMGQVGRQLAIIGDDINRRYDSE [Bak BH3 wild type, phage-displayed] ; what Fold/wt value has been reported?
1

So what's the measured Fold/wt for this one? PSSTMGQVGRQLAIIGDDINRRYASE [Bak BH3 D24A, phage-displayed]
1
